assay-overview: Cmax in CD-1 rat at 10 mg/kg, po by LC/MS/MS analysis
Format: ADME, organism-based
Parameters: dose 10 mg/kg, route po
measurement-context: in vivo
reported-property: Cmax (ng/mL)
Number in ng/mL, nothing else.

Prompt: So what does the record say about Cmax for C=CC(=O)Nc1cc(Nc2nccc(-c3cn4c5c(cccc35)OCC4)n2)c(OC)cc1N(C)CCN(C)C ?
Response: 207

Prompt: Looking for the measured Cmax of C=CC(=O)Nc1cc(Nc2ncc(-c3ccnn3C)c(-c3cn4c5c(cccc35)CCC4)n2)c(OC)cc1N(C)CCN(C)C , can you help?
Response: 320

Prompt: Give its Cmax value. Item: C=CC(=O)Nc1cc(Nc2ncc(C(=O)OCC)c(-c3cn4c5c(cccc35)CCC4)n2)c(OC)cc1N(C)CCN(C)C
Response: 110

====

assay-overview: AUClast in CD-1 mouse at 10 mg/kg, po by LC/MS/MS analysis
Assay type: ADME, organism-based
Design: dose 10 mg/kg, route po
measurement-context: in vivo
For each record, write down the corresponding AUC(0-t).
The figure you give is taken to be in ng·h/mL; do not add the unit.

Prompt: Consider the molecule shown here: C=CC(=O)Nc1cc(Nc2ncc(C(=O)OC(C)C)c(-c3cn(C)c4ccccc34)n2)c(OC)cc1N(C)C[C@@H]1CCCN1C What is its recorded AUC(0-t)?
Response: 643

Prompt: Item C=CC(=O)Nc1cc(Nc2nccc(-c3cn4c5c(cccc35)CCC4)n2)c(OC)cc1N(C)CCN(C)C has what recorded AUC(0-t)?
Response: 285

Prompt: What value of AUC(0-t) has been recorded for this entry: C=CC(=O)Nc1cc(Nc2ncc(C#N)c(-c3cn4c5c(cccc35)CCC4)n2)c(OC)cc1N(C)CCN(C)C
Response: 200

Prompt: Requested field: AUC(0-t). Item: C=CC(=O)Nc1cc(Nc2ncc(C(=O)OC(C)C)c(-c3cn(C)c4ccccc34)n2)c(OC)cc1N(C)CCN(C)C
Response: 341

Prompt: Reported AUC(0-t), molecule C=CC(=O)Nc1cc(Nc2ncc(-c3cnn(C)c3)c(-c3cn4c5c(cccc35)CCC4)n2)c(OC)cc1N(C)CCN(C)C : ____
Response: 105

Prompt: Form field: reported AUC(0-t) of C=CC(=O)Nc1cc(Nc2ncc(-c3ncco3)c(-c3cn4c5c(cccc35)CCC4)n2)c(OC)cc1N(C)CCN(C)C
Response: 234

Prompt: Return reported AUC(0-t); argument: C=CC(=O)Nc1cc(Nc2ncc(C(=O)OC(C)C)c(-c3cn(C(C)=O)c4ccccc34)n2)c(OC)cc1N(C)CCN(C)C
Response: 87

====

assay-overview: Cmax in CD-1 rat at 10 mg/kg, po by LC/MS/MS analysis
Format: ADME, organism-based
Parameters: dose 10 mg/kg, route po
measurement-context: in vivo
reported-property: Cmax (ng/mL)
Numbers only; they are read as ng/mL.

Prompt: Which Cmax value belongs to C=CC(=O)Nc1cc(Nc2nccc(-c3cn(C)c4ccccc34)n2)c(OC)cc1N(C)CCN(C)C ?
Response: 98

Prompt: Need Cmax of C=CC(=O)Nc1cc(Nc2ncc(C(=O)OC(C)C)c(-c3cn(C(C)=O)c4ccccc34)n2)c(OC)cc1N(C)CCN(C)C , thanks.
Response: 16

Prompt: What Cmax value was documented for this compound, C=CC(=O)Nc1cc(Nc2ncc(C(=O)OC)c(-c3cn(C)c4ccccc34)n2)c(OC)cc1N(C)CCN(C)C ?
Response: 207

Prompt: May I ask what Cmax has been recorded for C=CC(=O)Nc1cc(Nc2ncc(C(=O)OCC)c(-c3cn(C)c4ccccc34)n2)c(OC)cc1N(C)CCN(C)C ?
Response: 113

Prompt: For C=CC(=O)Nc1cc(Nc2nccc(-c3c4n(c5ccccc35)CCOC4)n2)c(OC)cc1N(C)CCN(C)C , what is its reported Cmax?
Response: 248

Prompt: Param item = C=CC(=O)Nc1cc(Nc2ncc(C(=O)OC(C)C)c(-c3cn(CC)c4ccccc34)n2)c(OC)cc1N(C)CCN(C)C ; retrieve measured Cmax.
Response: 149

Prompt: So what does the record say about Cmax for C=CC(=O)Nc1cc(Nc2ncc(-c3ncco3)c(-c3cn4c5c(cccc35)CCC4)n2)c(OC)cc1N(C)CCN(C)C ?
Response: 86

Prompt: So what does the record say about Cmax for C=CC(=O)Nc1cc(Nc2nccc(-c3cn4c5c(cccc35)CCC4)n2)c(OC)cc1N(C)CCN(C)C ?
Response: 126

====

assay-overview: AUClast in CD-1 mouse at 10 mg/kg, po by LC/MS/MS analysis
Assay type: ADME, organism-based
Design: dose 10 mg/kg, route po
measurement-context: in vivo
reported-property: AUC(0-t) (ng·h/mL)
Response body: numeric value in ng·h/mL, unit text excluded.

Prompt: What does the data say about its AUC(0-t)? Entry: C=CC(=O)Nc1cc(Nc2ncc(C(=O)OC)c(-c3cn(C)c4ccccc34)n2)c(OC)cc1N(C)CCN(C)C
Response: 92

Prompt: AUC(0-t) for C=CC(=O)Nc1cc(Nc2ncc(C(=O)OC(C)C)c(-c3cn(CC)c4ccccc34)n2)c(OC)cc1N(C)CCN(C)C ?
Response: 631

Prompt: Given the compound C=CC(=O)Nc1cc(Nc2nccc(-c3cn4c5c(cccc35)OCC4)n2)c(OC)cc1N(C)CCN(C)C , what is its reported AUC(0-t)?
Response: 438

Prompt: Name the reported AUC(0-t) value associated with the compound C=CC(=O)Nc1cc(Nc2ncc(-c3ccnn3C)c(-c3cn4c5c(cccc35)CCC4)n2)c(OC)cc1N(C)CCN(C)C
Response: 884

Prompt: Would you mind telling me what AUC(0-t) value was observed for C=CC(=O)Nc1cc(Nc2ncc(-c3nc(C)no3)c(-c3cn4c5c(cccc35)CCC4)n2)c(OC)cc1N(C)CCN(C)C ?
Response: 96

Prompt: Given the compound C=CC(=O)Nc1cc(Nc2ncc(C(=O)OC)c(-c3cn4c5c(cccc35)CCC4)n2)c(OC)cc1N(C)CCN(C)C , what is its reported AUC(0-t)?
Response: 56

Prompt: Value lookup for AUC(0-t); key = C=CC(=O)Nc1cc(Nc2ncc(C(=O)OC(C)C)c(-c3cn(C)c4ccccc34)n2)c(OC)cc1N(C)C[C@H]1CCCN1C
Response: 294

====

assay-overview: Inhibition of mouse EGFR V769_D770insASV mutant stably expressed in mouse BaF3 cells assessed as cell viability incubated for 3 days by Cell Titer-Glo assay
Assay type: cell-based
measurement-context: BaF3, 72 h
Exercise: for every item that follows, state its recorded pIC50.
pIC50 here: minus log base 10 of the concentration, concentration in moles per litre.

Prompt: Can you share its pIC50? I mean this compound: C=CC(=O)Nc1cc(Nc2ncc(C(=O)OC(C)C)c(-c3cn(CC)c4ccccc34)n2)c(OC)cc1N(C)CCN(C)C
Response: 8.15

Prompt: Could you tell me which pIC50 is on file for C=CC(=O)Nc1cc(Nc2ncc(-c3cnn(C)c3)c(-c3cn4c5c(cccc35)CCC4)n2)c(OC)cc1N(C)CCN(C)C ?
Response: 7.80

Prompt: Which measured pIC50 value corresponds to C=CC(=O)Nc1cc(Nc2ncc(C(=O)OC3CCC3)c(-c3cn(C)c4ccccc34)n2)c(OC)cc1N(C)CCN(C)C ?
Response: 7.55

Prompt: What does the data say about its pIC50? Entry: C=CC(=O)Nc1cc(Nc2ncc(-c3cnn(C(C)C)c3)c(-c3cn4c5c(cccc35)CCC4)n2)c(OC)cc1N(C)CCN(C)C
Response: 7.80

Prompt: I have this compound here, C=CC(=O)Nc1cc(Nc2ncc(Cl)c(-c3cnn4ccccc34)n2)c(OC)cc1N(C)CCN(C)C , and I need its recorded pIC50.
Response: 7.23

Prompt: Return reported pIC50; argument: C=CC(=O)Nc1cc(Nc2ncc(Cl)c(-c3cn4c5c(cccc35)CCC4)n2)c(OC)cc1N(C)CCN(C)C
Response: 7.24

Prompt: Reported pIC50, compound C=CC(=O)Nc1cccc(Nc2nc(Nc3ccc(N4CCN(C(C)=O)CC4)cc3OC)ncc2C(F)(F)F)c1 [ROCILETINIB] : ____
Response: 6.05

====

assay-overview: AUClast in CD-1 mouse at 10 mg/kg, po by LC/MS/MS analysis
Type: ADME, organism-based
Set-up: dose 10 mg/kg, route po
measurement-context: in vivo
reported-property: AUC(0-t) (ng·h/mL)
The answer is to be given in ng·h/mL; state only the numeric part.

Prompt: Dear colleague, I am looking for the recorded AUC(0-t) of the following compound: C=CC(=O)Nc1cc(Nc2nccc(-c3c4n(c5ccccc35)CCOC4)n2)c(OC)cc1N(C)CCN(C)C
Response: 655

Prompt: What value of AUC(0-t) has been reported for the following compound? C=CC(=O)Nc1cc(Nc2ncc(C(=O)OCC)c(-c3cn4c5c(cccc35)CCC4)n2)c(OC)cc1N(C)CCN(C)C
Response: 102

Prompt: Fill in the blank: the reported AUC(0-t) of C=CC(=O)Nc1cc(Nc2ncc(-c3cnn(C(C)C)c3)c(-c3cn4c5c(cccc35)CCC4)n2)c(OC)cc1N(C)CCN(C)C is ____.
Response: 353

Prompt: Bench note: what AUC(0-t) did C=CC(=O)Nc1cc(Nc2ncc(-c3nnco3)c(-c3cn4c5c(cccc35)CCC4)n2)c(OC)cc1N(C)CCN(C)C show?
Response: 22

Prompt: // query AUC(0-t) value for entry C=CC(=O)Nc1cc(Nc2ncc(C(=O)OCC)c(-c3cn(C)c4ccccc34)n2)c(OC)cc1N(C)CCN(C)C
Response: 129

Measured values drawn from ChEMBL document CHEMBL5236603 for this set.
